These measurements were taken from ChEMBL document CHEMBL4699560.

# Kb per record follows
molecular target: UniProt P02768; test: Binding affinity to human serum albumin […]; type: ADME, cell-free

Field Kb (UniProt P02768), entry "C/C=C(\C)C(=O)O[C@H](C)C[C@H]1CCCN1C(=O)CCCCCCCCC" : 6.4 10^4/M

----------
target: Albumin (Homo sapiens); test: Binding affinity to human serum albumin […]; type: ADME, cell-free
Sequence (P02768 whole entry): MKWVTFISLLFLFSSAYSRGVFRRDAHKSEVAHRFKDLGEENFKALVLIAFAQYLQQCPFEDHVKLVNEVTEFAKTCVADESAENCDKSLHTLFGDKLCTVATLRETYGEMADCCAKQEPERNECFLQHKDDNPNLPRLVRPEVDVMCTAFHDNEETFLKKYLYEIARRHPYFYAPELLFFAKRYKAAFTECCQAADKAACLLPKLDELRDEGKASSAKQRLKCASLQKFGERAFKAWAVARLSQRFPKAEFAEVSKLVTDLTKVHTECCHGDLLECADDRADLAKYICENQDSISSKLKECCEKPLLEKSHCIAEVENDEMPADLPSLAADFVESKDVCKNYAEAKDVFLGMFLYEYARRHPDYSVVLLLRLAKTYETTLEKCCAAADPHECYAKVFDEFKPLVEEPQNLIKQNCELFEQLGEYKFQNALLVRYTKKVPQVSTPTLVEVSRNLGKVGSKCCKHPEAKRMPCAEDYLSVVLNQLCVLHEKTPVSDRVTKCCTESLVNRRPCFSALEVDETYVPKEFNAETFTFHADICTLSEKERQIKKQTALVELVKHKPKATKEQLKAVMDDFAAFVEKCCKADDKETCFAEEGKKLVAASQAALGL
# Kb per record follows

compoundStructure	Kb
C/C=C(\C)C(=O)O[C@@H](C)C[C@H]1CCCN1C(=O)CCCCCCCCC	16 10^4/M
C/C=C(\C)C(=O)O[C@H](C)C[C@@H]1CCCN1C(=O)CCCCCCCCC	5.9 10^4/M

Please examine the following record next.
So for "C/C=C(\C)C(=O)O[C@@H](C)C[C@@H]1CCCN1C(=O)CCCCCCCCC" , the logged Kb turned out to be 7.2 10^4/M
